Target: human GABAB1 and GABAB2 receptor subunits (Homo sapiens, UniProt O75899+Q9UBS5)
Construct: expressed in transfected cells; host or cells: CHO cells
Sequence (Q9UBS5 15-961 limits assumed): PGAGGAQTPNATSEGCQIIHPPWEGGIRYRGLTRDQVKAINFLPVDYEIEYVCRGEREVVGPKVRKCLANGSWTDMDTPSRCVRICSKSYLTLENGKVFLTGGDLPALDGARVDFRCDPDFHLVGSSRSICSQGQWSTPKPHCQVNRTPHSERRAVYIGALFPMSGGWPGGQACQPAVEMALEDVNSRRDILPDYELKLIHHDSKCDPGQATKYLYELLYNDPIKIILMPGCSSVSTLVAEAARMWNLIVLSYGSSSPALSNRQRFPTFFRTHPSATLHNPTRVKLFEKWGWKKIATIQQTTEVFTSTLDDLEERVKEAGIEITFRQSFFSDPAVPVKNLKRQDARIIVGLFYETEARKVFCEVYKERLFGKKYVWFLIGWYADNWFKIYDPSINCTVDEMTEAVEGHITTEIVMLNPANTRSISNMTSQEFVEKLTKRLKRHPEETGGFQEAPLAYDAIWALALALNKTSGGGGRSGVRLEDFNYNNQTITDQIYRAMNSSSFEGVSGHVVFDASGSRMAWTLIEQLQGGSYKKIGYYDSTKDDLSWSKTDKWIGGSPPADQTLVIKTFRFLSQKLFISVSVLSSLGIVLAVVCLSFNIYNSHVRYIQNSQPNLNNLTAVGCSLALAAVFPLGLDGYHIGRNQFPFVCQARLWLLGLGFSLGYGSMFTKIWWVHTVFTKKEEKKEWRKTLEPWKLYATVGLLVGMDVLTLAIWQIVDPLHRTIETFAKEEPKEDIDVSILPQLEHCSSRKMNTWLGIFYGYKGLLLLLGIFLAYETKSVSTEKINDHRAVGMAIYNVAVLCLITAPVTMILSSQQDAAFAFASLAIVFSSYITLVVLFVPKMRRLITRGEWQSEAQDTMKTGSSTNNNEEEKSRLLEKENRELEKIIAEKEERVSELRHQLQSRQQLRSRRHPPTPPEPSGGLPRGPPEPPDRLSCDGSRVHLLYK
Sequence (O75899 42-941): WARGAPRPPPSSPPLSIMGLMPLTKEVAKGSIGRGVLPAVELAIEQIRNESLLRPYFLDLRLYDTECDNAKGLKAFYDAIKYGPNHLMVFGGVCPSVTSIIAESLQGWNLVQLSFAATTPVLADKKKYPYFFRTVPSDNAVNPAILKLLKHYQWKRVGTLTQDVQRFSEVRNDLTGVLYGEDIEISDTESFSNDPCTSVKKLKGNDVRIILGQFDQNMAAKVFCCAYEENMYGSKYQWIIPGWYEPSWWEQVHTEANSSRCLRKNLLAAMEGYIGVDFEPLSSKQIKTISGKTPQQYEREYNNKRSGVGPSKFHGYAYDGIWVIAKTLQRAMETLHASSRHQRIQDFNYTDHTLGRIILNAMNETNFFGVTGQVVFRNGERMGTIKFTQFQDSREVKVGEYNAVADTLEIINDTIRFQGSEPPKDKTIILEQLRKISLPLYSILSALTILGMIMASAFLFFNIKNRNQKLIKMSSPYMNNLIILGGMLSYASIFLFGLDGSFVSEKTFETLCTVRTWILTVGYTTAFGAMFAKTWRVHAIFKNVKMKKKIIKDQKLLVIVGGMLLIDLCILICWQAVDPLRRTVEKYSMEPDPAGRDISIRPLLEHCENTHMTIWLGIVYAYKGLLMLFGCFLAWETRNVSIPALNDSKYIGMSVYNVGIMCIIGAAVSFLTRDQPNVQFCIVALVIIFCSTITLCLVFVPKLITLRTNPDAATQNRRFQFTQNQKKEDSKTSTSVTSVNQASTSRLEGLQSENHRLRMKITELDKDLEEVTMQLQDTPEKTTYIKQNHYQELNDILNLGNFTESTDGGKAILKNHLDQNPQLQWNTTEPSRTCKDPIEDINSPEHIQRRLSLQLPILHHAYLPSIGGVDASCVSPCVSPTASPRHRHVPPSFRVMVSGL
Experiment: Agonism and positive allosteric modulator pharmacology in vitro, two-addition FLIPR calcium assay
Format: cell-based
Settings: CHO cells co-expressing Galpha16; positive allosteric modulator efficacy at 10 μM (with EC10.5 GABA) / GABA efficacy at 30 μM
Excerpt: CHO cells expressing the human GABAB1 and GABAB2 receptor subunits co-expressing promiscuous Galpha16 proteins to force couple the receptor to the intracellular calcium signalling pathway were used to study GABAB pharmacology in vitro. […] The day before the experiment the cells were detached and plated into black-walled clear bottom 384-well plates at a cell density of 20 000 cells per well. […] The samples were excited at 470-495 nm and emission was detected at 515-575 nm. […]
Observed property: IA (GABAB positive allosteric modulation)

CC(C)(O)Cn1c(=O)n(Cc2ccc(Br)cc2)c(=O)c2cc(F)c(Cl)cc21: 0.61

P: Cn1c(=O)n(C2(c3ccc(Cl)cc3)CC2)c(=O)c2ccc(F)cc21
Q: CC1(Cn2c(=O)n(Cc3ccc(Br)cc3)c(=O)c3cc(F)c(Cl)cc32)COC1
(Q) I'd appreciate it if you could identify which of P and Q has the greater IA (GABAB positive allosteric modulation). Answer by quoting the chosen item's label.
(A) Q
(Q: 0.73, P: 0.51)

----------
Molecular target: human GABAB1 and GABAB2 receptor subunits (Homo sapiens, UniProt O75899+Q9UBS5)
Construct: expressed in transfected cells; host or cells: CHO cells
Assay: Agonism and positive allosteric modulator pharmacology in vitro, two-addition FLIPR calcium assay
Assay type: cell-based
Conditions: CHO cells co-expressing Galpha16; positive allosteric modulator efficacy at 10 μM (with EC10.5 GABA) / GABA efficacy at 30 μM
Observed property: IA (GABAB positive allosteric modulation)

C[C@@H](O)Cn1c(=O)n(Cc2ccc(Cl)cc2)c(=O)c2ccc(Cl)c(F)c21: 0.71

I: CC(C(N)=O)n1c(=O)n(Cc2ccc(Br)cc2)c(=O)c2ccc(F)cc21 (stereo not drawn)
II: CC(C)(O)Cn1c(=O)n(Cc2ccc(Br)cc2)c(=O)c2ccc(Cl)c(F)c21
(Q) Between I and II , whose recorded IA (GABAB positive allosteric modulation) is greater? Answer by stating the label of the chosen item.
(A) II

----------
Biological target: human GABAB1 and GABAB2 receptor subunits (Homo sapiens, UniProt O75899+Q9UBS5)
Construct: expressed in transfected cells; host or cells: CHO cells
Experiment: Potentiation of GABA dose-response, FLIPR calcium assay
Format: cell-based
Settings: compound at 10 μM; EC50 of GABA divided by EC50 of GABA in the presence of positive allosteric modulator
Observed property: Potentiation of GABA (fold)

Some compounds with recorded Potentiation of GABA (fold):
C[C@@H](O)Cn1c(=O)n(Cc2ccc(Cl)cc2)c(=O)c2ccc(Cl)c(F)c21: 24.5
Cn1c(=O)n(Cc2ccc([N+](=O)[O-])cc2)c(=O)c2ccc(F)cc21: 1.5

I: C[C@H](c1ccc(Cl)cc1)n1c(=O)c2ccc(Cl)cc2n(CC2(C)COC2)c1=O
II: CC(C)(O)Cn1c(=O)n(Cc2ccc(Br)cc2)c(=O)c2cc(F)c(Cl)cc21
(Q) Two entries are listed, I and II . Which one carries the higher Potentiation of GABA (fold)? Indicate which entry you chose by stating its label.
(A) II
(II: 31 fold, I: 19.7 fold)
